Origin of measurements: patent US11198686B2

test: Approximate solubility of crystal form A in different solvents (manual stepwise dilution); assay type: physicochemical; conditions: organic solvent or mixture, thermodynamic from solid; Tetrahydrofuran, ambient temperature
quantityName: solubility

Query: Data request, read-out solubility, for CC1(c2ccc(=O)n(-c3ccsc3)c2)COC1 [crystal form A]
Result: 51 to 102 mg/mL

====

assay: Approximate solubility of crystal form A in different solvents (manual stepwise dilution); assay type: physicochemical; conditions: organic solvent or mixture, thermodynamic from solid; Ethyl acetate, ambient temperature
quantityName: solubility

Query: Fill in: solubility of CC1(c2ccc(=O)n(-c3ccsc3)c2)COC1 [crystal form A] is ___
Result: 34 to 51 mg/mL

====

assay: Approximate solubility of crystal form A in different solvents (manual stepwise dilution); format: physicochemical; settings: organic solvent or mixture, thermodynamic from solid; Isopropanol, ambient temperature
quantityName: solubility

Query: Recorded solubility of CC1(c2ccc(=O)n(-c3ccsc3)c2)COC1 [crystal form A] , please.
Result: 34 to 52 mg/mL
